selective drug sensitivity score reference
- Test system: MHH-CALL-2;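 note: ALL cell lines in 384-well plates, five doses spanning 10,000-fold, each plate scaled between vehicle and 100 µmol/L benzalkonium chloride controls, sDSS an adapted area-under-curve metric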
- Run description: selective drug sensitivity score (sDSS, relative to normal bone marrow) (sDSS (score)); higher = more potent and effective on the cell line relative to normal bone marrow cells
- Measurement setup: 72 h
// return just the number, without any unit appended

[
  {
    "Compound": "CCn1cc(-c2ccnc3[nH]c(-c4cccc(CN(C)C)c4)cc23)c(-c2ccc(NC(=O)N(C)C)cc2)n1 (top concentration 1000 nM)",
    "selective drug sensitivity score": 6.66
  },
  {
    "Compound": "COc1ccc(Cn2ccc3ccc(C(=O)NO)cc32)cc1 (top concentration 10000 nM)",
    "selective drug sensitivity score": 6.24
  },
  {
    "Compound": "CNC(=O)c1ccc(-c2cnc3ncc(Cc4ccc5ncccc5c4)n3n2)cc1F [Capmatinib] (top concentration 1000 nM)",
    "selective drug sensitivity score": -0.06
  },
  {
    "Compound": "Cn1c(Nc2ccc(C(F)(F)F)cc2)nc2cc(Oc3ccnc(-c4ncc(C(F)(F)F)[nH]4)c3)ccc21 [NVP-RAF265] (top concentration 1000 nM)",
    "selective drug sensitivity score": 12
  },
  {
    "Compound": "CCN1C(=O)CNc2ncc(-c3ccc(-c4nc[nH]n4)nc3C)nc21 [CC-115] (top concentration 10000 nM)",
    "selective drug sensitivity score": 8.34
  },
  {
    "Compound": "C[C@]1(c2nc3c(C(N)=O)cccc3[nH]2)CCCN1 [Veliparib] (top concentration 10000 nM)",
    "selective drug sensitivity score": 5.02
  }
]

Pending compound:
State its selective drug sensitivity score: CC(C)c1c(C(=O)Nc2ccccc2)c(-c2ccccc2)c(-c2ccc(F)cc2)n1CC[C@@H](O)C[C@@H](O)CC(=O)O [Atorvastatin] (top concentration 10000 nM) 0
